Target: DβH (Homo sapiens, UniProt P09172)
Construct: reaction mixture (total volume 500 μl) contained: cellular homogenate (75 μg total protein); host or cells: SK-N-SH cell homogenate
Sequence (P09172 1-617): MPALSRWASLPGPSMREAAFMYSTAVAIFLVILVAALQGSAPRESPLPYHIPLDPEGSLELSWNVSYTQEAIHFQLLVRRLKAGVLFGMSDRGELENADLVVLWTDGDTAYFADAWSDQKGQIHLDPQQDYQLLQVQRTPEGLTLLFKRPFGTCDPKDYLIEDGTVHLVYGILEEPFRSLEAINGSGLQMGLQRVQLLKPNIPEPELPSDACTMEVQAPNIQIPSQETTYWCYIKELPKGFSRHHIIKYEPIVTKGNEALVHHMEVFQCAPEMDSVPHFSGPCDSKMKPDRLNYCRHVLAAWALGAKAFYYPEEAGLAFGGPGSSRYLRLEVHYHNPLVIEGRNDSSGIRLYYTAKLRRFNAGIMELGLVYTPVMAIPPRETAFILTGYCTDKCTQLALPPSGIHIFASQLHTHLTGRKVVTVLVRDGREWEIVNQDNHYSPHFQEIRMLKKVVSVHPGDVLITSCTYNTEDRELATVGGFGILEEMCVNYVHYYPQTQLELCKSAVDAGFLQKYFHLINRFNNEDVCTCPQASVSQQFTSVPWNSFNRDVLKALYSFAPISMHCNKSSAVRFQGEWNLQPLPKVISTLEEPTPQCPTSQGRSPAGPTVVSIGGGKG
Assay: DβH inhibition cell assay (SK-N-SH cellular homogenates, tyramine to octopamine)
Assay type: biochemical
Details: inhibitor 0.1 μM; SK-N-SH cell homogenate; read-out: DβH activity in % of Ctrl (0.1 μM)
measured endpoint: remaining activity at 0.1 µM
Remember to put the unit after the number in your answer.

Below, each entry is followed by its recorded remaining activity at 0.1 µM result.
Measured remaining activity at 0.1 µM of Cc1[nH]c(=S)n2c1C[C@@H](c1c(F)ccc(Cl)c1F)C2 [Example 105] : 17.4%

Measured remaining activity at 0.1 µM of Fc1ccc(Br)c(F)c1[C@]12C[C@H]1c1n[nH]c(=S)n1C2 [Example 119] : 49.1%

Measured remaining activity at 0.1 µM of NC(=S)N1CC2CC2(c2cc(F)cc(F)c2)C1 (stereo not shown) [Example 34] : 12.3%

Measured remaining activity at 0.1 µM of NC(=S)N1CCC(c2ccc(F)cc2)C1 (stereo not shown) [Example 3] : 89%

Measured remaining activity at 0.1 µM of NC(=S)N1CCC(c2ccsc2)C1 (stereo not shown) [Example 15] : 50.1%

Others:
Measured remaining activity at 0.1 µM of CNC(=S)N1CC2(c3cc(F)cc(F)c3)CC2C1=O (stereo not shown) [Example 43] : 43.6%

Measured remaining activity at 0.1 µM of Fc1ccc(Cl)cc1[C@]12C[C@H]1c1c[nH]c(=S)n1C2 [Example 74] : 21.9%

Measured remaining activity at 0.1 µM of NC(=S)N1C[C@@H]2C[C@]2(c2cc(F)cc(F)c2)C1 [Example 36] : 4%

Measured remaining activity at 0.1 µM of Fc1cc(Br)cc([C@]23C[C@H]2c2c[nH]c(=S)n2C3)c1 [Example 94] : 18.1%

Measured remaining activity at 0.1 µM of Fc1ccc(F)c(C23CC2c2c[nH]c(=S)n2C3)c1 (stereo not shown) [Example 55] : 61%

====

biological target: DβH (Homo sapiens, UniProt P09172); construct: reaction mixture (total volume 500 μl) contained: cellular homogenate (75 μg total protein); host or cells: SK-N-SH cell homogenate; assay: DβH inhibition cell assay (SK-N-SH cellular homogenates, tyramine to octopamine); type: biochemical; details: inhibitor 1 μM; SK-N-SH cell homogenate; read-out: DβH activity in % of Ctrl (1 μM)
remaining activity at 1 µM values for the compounds below.
Write the number in % without appending the unit.

Below, each entry is followed by its recorded remaining activity at 1 µM result.
Reading of remaining activity at 1 µM for Fc1ccc(Cl)c(F)c1[C@]12C[C@H]1c1c[nH]c(=S)n1C2 with DβH (Homo sapiens, UniProt P09172): 1

Reading of remaining activity at 1 µM for Cc1[nH]c(=S)n2c1C[C@H](c1c(F)ccc(Cl)c1F)C2 with DβH (Homo sapiens, UniProt P09172): 6

Reading of remaining activity at 1 µM for Fc1ccc(Br)c(F)c1[C@]12C[C@H]1c1c[nH]c(=S)n1C2 with DβH (Homo sapiens, UniProt P09172): 0

Others:
Reading of remaining activity at 1 µM for Fc1ccc(F)c([C@]23C[C@H]2c2c[nH]c(=S)n2C3)c1 with DβH (Homo sapiens, UniProt P09172): 7.8

====

Papp A→B at 30 min, 50 μM values for the compounds below.
assay: in vitro; conditions: dog, MDCK, pH 7.4
Write the number in ×10⁻⁶ cm/s without appending the unit.

Below, each entry is followed by its recorded Papp A→B at 30 min, 50 μM result.
Measured Papp A→B at 30 min, 50 μM of NC(=S)N1CCC(C2CCCCC2)C1 (stereo not shown) [Example 9, 3-cyclohexylpyrrolidine-1-carbothioamide] : 251

Measured Papp A→B at 30 min, 50 μM of CC(C)NCC(O)COc1cccc2ccccc12 (stereo not shown) [Propranolol, reference compound] : 63.1

Measured Papp A→B at 30 min, 50 μM of S=c1[nH]cc2n1CC(c1ccccc1)C2 (stereo not shown) : 100

Measured Papp A→B at 30 min, 50 μM of NC(=S)N1CC2CC2(c2ccccc2)C1 (stereo not shown) : 126

Measured Papp A→B at 30 min, 50 μM of NC(=S)N1CCC(c2c(F)c(F)cc(F)c2F)C1 (stereo not shown) : 100

Others:
Measured Papp A→B at 30 min, 50 μM of Fc1cc(F)cc([C@@H]2Cc3c[nH]c(=S)n3C2)c1 : 251

Measured Papp A→B at 30 min, 50 μM of NC(=S)N1CCC(c2ccsc2)C1 (stereo not shown) : 79.4

Measured Papp A→B at 30 min, 50 μM of NC(=S)N1CCC(c2cccs2)C1 (stereo not shown) : 126

Measured Papp A→B at 30 min, 50 μM of CNC(=S)N1CCC(c2cc(F)cc(F)c2)C1 (stereo not shown) : 100

Measured Papp A→B at 30 min, 50 μM of Fc1ccc(F)c(C23CC2c2c[nH]c(=S)n2C3)c1 (stereo not shown) : 79.4

Measured Papp A→B at 30 min, 50 μM of NC(=S)N1CC2CC2(c2ccc(F)cc2F)C1 (stereo not shown) : 79.4

Measured Papp A→B at 30 min, 50 μM of CNC(=S)N1C[C@@H]2C[C@]2(c2cc(F)cc(F)c2)C1 : 126

Measured Papp A→B at 30 min, 50 μM of Fc1ccc(F)c(C2Cc3c[nH]c(=S)n3C2)c1 (stereo not shown) : 100

====

molecular target: DβH (Homo sapiens, UniProt P09172); construct: reaction mixture (total volume 500 μl) contained: cellular homogenate (75 μg total protein); host or cells: SK-N-SH cell homogenate; assay: DβH inhibition cell assay (SK-N-SH cellular homogenates, tyramine to octopamine); assay type: biochemical; settings: inhibitor 1 μM; SK-N-SH cell homogenate; read-out: DβH activity in % of Ctrl (1 μM)
measured endpoint: remaining activity at 1 µM
Remember to put the unit after the number in your answer.

Below, each entry is followed by its recorded remaining activity at 1 µM result.
Measured remaining activity at 1 µM of Fc1cccc([C@@]23C[C@@H]2c2c[nH]c(=S)n2C3)c1F : 36.1%

Measured remaining activity at 1 µM of Fc1cc(Br)cc([C@]23C[C@H]2c2c[nH]c(=S)n2C3)c1 : 0%

Measured remaining activity at 1 µM of NC(=S)N1C[C@@H]2C[C@]2(c2cc(F)cc(F)c2)C1 : 0%

Measured remaining activity at 1 µM of NC(=S)N1CCC(c2ccc(F)c(F)c2)C1 (centres unmarked) : 44.8%

With those in mind, consider the next molecule.
Measured remaining activity at 1 µM of NC(=S)N1C[C@@H]2C[C@]2(c2cccs2)C1 : 3.3%

====

target: DβH (Homo sapiens); construct: reaction mixture (total volume 500 μl) contained: cellular homogenate (75 μg total protein); host or cells: SK-N-SH cell homogenate; test: DβH inhibition cell assay (SK-N-SH cellular homogenates, tyramine to octopamine); format: biochemical; conditions: inhibitor 0.1 μM; SK-N-SH cell homogenate; read-out: DβH activity in % of Ctrl (0.1 μM)
measured endpoint: remaining activity at 0.1 µM (%)
Write the number in % without appending the unit.

Below, each entry is followed by its recorded remaining activity at 0.1 µM result.
Measured remaining activity at 0.1 µM of CCCNC(=S)N1C[C@@H]2C[C@]2(c2cc(F)cc(F)c2)C1 [Example 39] : 40.4

Measured remaining activity at 0.1 µM of NC(=S)N1C[C@@H]2C[C@]2(c2cccs2)C1 [Example 28] : 0.2

Measured remaining activity at 0.1 µM of Fc1ccc(F)c([C@@]23C[C@@H]2c2c[nH]c(=S)n2C3)c1 [Example 57] : 97.9

Measured remaining activity at 0.1 µM of Fc1ccc(Br)c(F)c1[C@H]1Cc2c[nH]c(=S)n2C1 [Example 118] : 33.8

Measured remaining activity at 0.1 µM of Fc1ccc(Cl)cc1[C@@]12C[C@@H]1c1c[nH]c(=S)n1C2 [Example 110] : 73.8

Others:
Measured remaining activity at 0.1 µM of NC(=S)N1CC2CC2(c2ccc(F)cc2F)C1 (centres unmarked) [Example 37] : 59.7

Measured remaining activity at 0.1 µM of Fc1ccc(Br)cc1[C@]12C[C@H]1c1n[nH]c(=S)n1C2 [Example 120] : 86.4

Measured remaining activity at 0.1 µM of Fc1c(Cl)cccc1[C@]12C[C@H]1c1c[nH]c(=S)n1C2 [Example 92] : 2

Measured remaining activity at 0.1 µM of Cc1[nH]c(=S)n2c1C[C@H](c1c(F)ccc(Cl)c1F)C2 [Example 104] : 47.5

Measured remaining activity at 0.1 µM of NC(=S)N1CCC(c2cc(F)cc(F)c2)C1 (centres unmarked) [Example 12] : 63

Measured remaining activity at 0.1 µM of Fc1ccc(F)c([C@]23C[C@H]2c2c[nH]c(=S)n2C3)c1 [Example 56] : 41.7

Measured remaining activity at 0.1 µM of Fc1ccc(F)c([C@H]2Cc3c[nH]c(=S)n3C2)c1F [Example 113] : 39.6

Measured remaining activity at 0.1 µM of Fc1cccc(F)c1[C@@H]1Cc2c[nH]c(=S)n2C1 [Example 84] : 96.9

Measured remaining activity at 0.1 µM of NC(=S)N1C[C@H]2C[C@@]2(c2cc(F)cc(F)c2)C1 [Example 35] : 95

Measured remaining activity at 0.1 µM of Fc1cc(F)cc(C2Cc3c[nH]c(=S)n3C2)c1 (centres unmarked) [Example 50] : 89.3

Measured remaining activity at 0.1 µM of CNC(=S)N1CCC(c2cc(F)cc(F)c2)C1 (centres unmarked) [Example 32] : 57.3

Measured remaining activity at 0.1 µM of Fc1ccc(Cl)c(F)c1[C@@]12C[C@@H]1c1c[nH]c(=S)n1C2 [Example 103] : 63.4

Measured remaining activity at 0.1 µM of NC(=S)N1CCC(c2c(F)c(F)c(F)c(F)c2F)C1 (centres unmarked) [Example 29] : 26.9

Measured remaining activity at 0.1 µM of NC(=S)N1CCC(c2cccs2)C1 (centres unmarked) [Example 2] : 54.9

Measured remaining activity at 0.1 µM of Fc1ccc(Cl)c(F)c1[C@H]1Cc2c[nH]c(=S)n2C1 [Example 86] : 25.3
